Ref: PubChem BioAssay

# test method notes: small-molecule microarray binders of probe aDKK1, primary screen, biochemical, biotinylated probe, 635/667 nm fluorescence (AID 1099);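 further: score merges 667nm spot fluorescence with signal to noise across triplicate slides; reference of the scale not given here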
# condition details: higher = more signal
reported endpoint: composite z-score

Below, each entry is followed by its recorded composite z-score result.
- compound: "O=C1NC(=O)C2C1C=CC(C(O)c1ccc(F)cc1)N2Nc1ccc(Cl)cc1Cl (configuration not stated)"
  composite z-score: 0.96
- compound: "O=C1O[C@@H](c2ccccc2)[C@@H](c2ccccc2)N2[C@@H](c3ccccc3OCCO)[C@]3(C(=O)Nc4ccc(C#CC5(O)CCCCCC5)cc43)[C@@H](C(=O)N3CCCCCCC3)[C@H]12"
  composite z-score: 3.21
- compound: "CCOC(=O)C1=C[C@@H](C(C)(C)C)N(S(=O)(=O)c2ccc(C)cc2)[C@H]1c1ccc(OC)cc1"
  composite z-score: 0.305
- compound: "C=C(C(=O)CC[C@@H](OC(=O)c1cccnc1)c1cccc(OCCO)c1)C(C)C"
  composite z-score: 0.28
- compound: "CCCC=C(CCC)[C@@H](NC(=O)c1ccc(C(=O)OC)cc1)c1ccc(C(=O)OC)cc1"
  composite z-score: 0.816

What does the data say about its composite z-score? Entry: `O=C(NCC(F)(F)F)[C@@H]1c2ccccc2C(=O)N(Cc2cc(C(F)(F)F)cc(C(F)(F)F)c2)[C@H]1c1ccc(CO)cc1`
-0.207

What does the data say about its composite z-score? Entry: `COC(=O)[C@@]1(Cc2ccc(F)cc2)[C@H]2c3cc(C(=O)N4CCCC4)n(CCc4c[nH]c5cc(F)ccc45)c3C[C@H]2CN1C(=O)c1ccccc1`
0.593

====

# system under test: Neurogenic locus notch homolog protein 2 (Homo sapiens)
# test method notes: Notch2 binders on small-molecule microarrays, primary screen, biochemical, small-molecule microarray, 635 nm fluorescence, stem cell growth factors (AID 1073)
# condition details: Notch2 binding, higher = more signal
reported endpoint: composite z-score

Below, each entry is followed by its recorded composite z-score result.
- molecule: "CCCCCCc1nc(-c2ccc(OC)nc2)c(C)c2c1[Si](C(C)C)(C(C)C)OC2"
  system under test: "Neurogenic locus notch homolog protein 2 (Homo sapiens)"
  composite z-score: 0.0716
- molecule: "COC(=O)[C@@]1(Cc2ccc(F)cc2)[C@H]2c3cc(C(=O)N4CCCC4)n(Cc4ccc(C(F)(F)F)nc4)c3C[C@H]2CN1C(=O)c1ccccc1"
  system under test: "Neurogenic locus notch homolog protein 2 (Homo sapiens)"
  composite z-score: 1.74
- molecule: "C=C(C)C1CN([C@H](CO)c2ccccc2)C(=O)/C1=C\\c1ccccc1 (some centres undefined)"
  system under test: "Neurogenic locus notch homolog protein 2 (Homo sapiens)"
  composite z-score: -0.0443
- molecule: "O=C1O[C@H](c2ccccc2)[C@H](c2ccccc2)N2[C@H]1[C@@H](C(=O)N1CCCCCCC1)[C@]1(C(=O)Nc3ccc(C#CCCO)cc31)[C@H]2c1ccc(O)cc1"
  system under test: "Neurogenic locus notch homolog protein 2 (Homo sapiens)"
  composite z-score: 1.79
- molecule: "COCCOC(=O)N1C(=O)[C@@]2(c3cc(C#CCC(C(=O)OC)C(=O)OC)ccc31)[C@H](C(=O)N1CCc3cc(OC)c(OC)cc3C1)[C@H]1C(=O)O[C@H](c3ccccc3)[C@H](c3ccccc3)N1[C@@H]2c1ccccc1OCCO"
  system under test: "Neurogenic locus notch homolog protein 2 (Homo sapiens)"
  composite z-score: 1.44
- molecule: "CCCCN1CC=CC23O[C@@H]4C=CCCOC(=O)C4[C@H]2C(=O)N(CCO)[C@@H]3C1=O (some centres undefined)"
  system under test: "Neurogenic locus notch homolog protein 2 (Homo sapiens)"
  composite z-score: -1.29
- molecule: "CO[C@H]1O[C@H](CO)[C@@H](OC(=O)Nc2cccc(F)c2)[C@H](OC(=O)Nc2ccc3c(c2)OCO3)[C@@H]1OC(=O)Nc1ccc2c(c1)OCO2"
  system under test: "Neurogenic locus notch homolog protein 2 (Homo sapiens)"
  composite z-score: 1.46
- molecule: "CN1C(=O)C2C(C1=O)C1C=C(CCCO)C2C(C2CC2)N1C (centres undefined)"
  system under test: "Neurogenic locus notch homolog protein 2 (Homo sapiens)"
  composite z-score: 0.196

What does the data say about its composite z-score? Entry: CC1C2C(CCCO)=CC(C3C(=O)N(C)C(=O)C23)N1Cc1cccc(OC(F)(F)F)c1 (centres undefined)
0.929

What does the data say about its composite z-score? Entry: CC1(C)OB(/C=C\CC(OC(=O)c2ccncc2)c2ccccc2)OC1(C)C (centres undefined)
-1.48

What does the data say about its composite z-score? Entry: `COc1cccc(C)c1NC(=O)O[C@H]1[C@H](OC(=O)Nc2ccc3c(c2)OCO3)[C@H](OC(=O)Nc2ccc3c(c2)OCO3)[C@@H](OC)O[C@@H]1CO`
1.25

What does the data say about its composite z-score? Entry: `C=CCNC(=O)[C@H]1[C@@H]2C(=O)O[C@@H](c3ccccc3)[C@@H](c3ccccc3)N2[C@@H](c2ccc(OCCO)cc2)[C@]12C(=O)N(C(=O)OCCOC)c1ccc(C#CCNC(N)=O)cc12`
1.41

What does the data say about its composite z-score? Entry: `C=CCOC(=O)[C@@H]1[C@H]2C(=O)O[C@H](c3ccccc3)[C@H](c3ccccc3)N2[C@H](c2ccc(OCCOC(=O)[C@@H]3C[C@@H]4C(=O)N[C@@H](CC(C)C)C(=O)N4[C@@H]3c3ccc(O)cc3)cc2)[C@@]12C(=O)Nc1ccc(I)cc12`
0.853

What does the data say about its composite z-score? Entry: `OCCCc1cc[n+](Cc2cc3c(cc2Br)OCO3)cc1`
-0.914
